All values here come from the supplement of paper PMC10065799.

- Experimental System: c-Src SH2;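 note: peptide library displayed on the E. coli surface as eCPX fusions, selected cells deep-sequenced, score is each peptide's frequency after selection divided by its frequency in the input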
- Assay Comment: SH2 binding enrichment of the phosphorylated peptide, bacterial display (enrichment ratio); higher = better substrate or ligand; peptides without Tyr show the background
Assign MET to entries whose SH2 binding enrichment meets or exceeds 1; assign NOT MET to the rest.

Asked: Entry VFLGAYDHFLP [SLC22A5_Y486_R488H_YF] : is its SH2 binding enrichment no less than 1?
Given back: MET

Would you kindly look at the next entry?
Asked: API: above_or_equal(metric=SH2 binding enrichment, cutoff=1) for item QLYGPYLRIHA [BSCL2_Y213_A212P]
Given back: MET

###

- Experimental System: Fyn (UniProt P06241)
- Sequence (P06241 whole entry, looked up): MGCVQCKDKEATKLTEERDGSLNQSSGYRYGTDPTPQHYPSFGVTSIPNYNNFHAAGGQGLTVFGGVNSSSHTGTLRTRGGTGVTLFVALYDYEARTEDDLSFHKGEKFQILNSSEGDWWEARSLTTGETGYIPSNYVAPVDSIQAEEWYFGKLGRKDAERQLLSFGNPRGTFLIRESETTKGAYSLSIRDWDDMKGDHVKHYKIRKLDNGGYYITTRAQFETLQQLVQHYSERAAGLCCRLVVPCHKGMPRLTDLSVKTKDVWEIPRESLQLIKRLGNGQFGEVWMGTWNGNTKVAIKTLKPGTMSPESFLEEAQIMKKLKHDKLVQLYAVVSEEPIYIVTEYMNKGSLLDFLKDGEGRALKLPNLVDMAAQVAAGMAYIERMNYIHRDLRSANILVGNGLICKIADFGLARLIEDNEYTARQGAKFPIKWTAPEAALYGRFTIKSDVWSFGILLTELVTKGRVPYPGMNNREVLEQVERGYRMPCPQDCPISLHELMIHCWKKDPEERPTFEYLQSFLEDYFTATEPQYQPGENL
- Assay Comment: phosphorylation enrichment, bacterial display (enrichment ratio); higher = better substrate or ligand; peptides without Tyr show the background
Metric: phosphorylation enrichment

These recorded examples may help you get a feel for the data.
The recorded phosphorylation enrichment for HEKFLYFLPAS [DYNC2H1_Y346] is 1.87

Notebook: YETSHYLASPD [CTNND2_Y1217_P1218L] , phosphorylation enrichment read as 0.523

Item: RIFDFYSARKT [STOX1_Y858_A863T_YF] | phosphorylation enrichment: 0.485

Just so you know, measured phosphorylation enrichment for TSSAGYRRTPS [ABI1_Y333_G331A] came out at 0.484

Per the record, GLNKGYRMVVN [HINT1_Y94] has phosphorylation enrichment of 0.375

Measured phosphorylation enrichment of RLGLQYSQGLV [EIF2B4_Y214] : 0.732

The recorded phosphorylation enrichment for entry ADRNHYRRFPR [YBX1_Y145_YF] equals 0.519

// EYKDAYKFAAD [BRDT_Y335] : phosphorylation enrichment value = 0.499

***
Sample WAAQRYGRELR [BAD_Y110] ; phosphorylation enrichment observed: 0.445

Form: sequence = SLDLSYFPTSS [EMD_Y181_YF] ; phosphorylation enrichment = 0.496

Quick note, phosphorylation enrichment for EVKEAYMGSVL [ACAT1_Y90_N93S] landed at 0.489

The measured phosphorylation enrichment associated with NPQKSYFILLF [WAS_Y83_R86L_YF] reads 0.449

###

- Experimental System: Fyn (UniProt P06241)
- Assay Comment: phosphorylation enrichment, bacterial display (enrichment ratio); higher = better substrate or ligand; peptides without Tyr show the background
# binarize phosphorylation enrichment: threshold 0.5 inclusive, high side y, low side n

Asked: Form field: phosphorylation enrichment at least 0.5? Entry: PLLTDYSPQLQ [OTC_Y345_S340P]
Given back: y

Asked: Reported phosphorylation enrichment reaches at least 0.5 for SFCFRYRCAPR [SUMF1_Y344_A348P_YF] ?
Given back: y

Asked: I'd appreciate it if you could say whether SVTCTYSPGLN [TP53_Y126_A129G] has phosphorylation enrichment at least equal to 0.5.
Given back: y

Asked: Please check the record NAGAFYALSTL [FLVCR2_Y325] and state if its phosphorylation enrichment is at or above 0.5.
Given back: y

New cases:
Asked: Check this sequence for phosphorylation enrichment at or above 0.5: SRIWVYNHYRW [BRCA2_Y2621]
Given back: n

Asked: Does the reported phosphorylation enrichment for SVIVPYEPPEV [TP53_Y220_V217I] fall at or above the 0.5 mark?
Given back: y

Asked: Tell me whether phosphorylation enrichment is at least 0.5 here: RLLVVYPWTKR [HBB_Y36_Q40K]
Given back: n

Asked: Does the reported phosphorylation enrichment for DMGAQYAAASR [ARID1B_Y483_P488R] fall at or above the 0.5 mark?
Given back: n

Asked: Please check the record SDGGCYEQLFV [MC4R_Y41] and state if its phosphorylation enrichment is at or above 0.5.
Given back: y
